Where these numbers come from: ChEMBL document CHEMBL3600370

# reported pEC50; entries follow
tested on: Leishmania amazonensis; assay: Anti-leishmanial activity against Leishmania amazonensis MPRO/BR/1972/M1841-LV-79 promastigotes assessed as parasite growth inhibition incubated for 72 hrs by MTT assay; assay type: functional, organism-based; details: MPRO/BR/1972/M1841-LV-79, 72 h
In textbook form, pEC50 equals minus log to base ten of the concentration in mol/L.

Examples with answers:
# Molecule, pEC50
measured = [
    ("O=C(/C=C/c1ccccc1O)c1ccccc1", 3.48),
    ("CC(C)=CCC/C(C)=C/CC/C(C)=C/COc1ccccc1/C=C/C(=O)c1ccccc1", 5.19),
    ("CC(C)=CCC/C(C)=C/COc1cccc(/C=C/C(=O)c2ccccc2)c1", 5.05),
    ("CC(C)=CCC/C(C)=C/CC/C(C)=C/COc1cccc(/C=C/C(=O)c2ccccc2)c1", 5.03),
    ("O=C(/C=C/c1ccccc1)c1ccccc1", 4.88),
    ("O=C(/C=C/c1cccc(O)c1)c1ccccc1 [3-HYDROXY CHALCONE]", 3.39),
]

Which pEC50 is listed for N=C(N)c1ccc(OCCCCCOc2ccc(C(=N)N)cc2)cc1 ?
4.99

Another: C[C@@H]1[C@H](O)[C@@H](C)/C=C/C=C/C=C/C=C/C=C/C=C/C=C/[C@H](O[C@@H]2O[C@H](C)[C@@H](O)[C@H](N)[C@@H]2O)C[C@@H]2O[C@](O)(C[C@@H](O)C[C@@H](O)[C@H](O)CC[C@@H](O)C[C@@H](O)CC(=O)O[C@H]1C)C[C@H](O)[C@H]2C(=O)O
5.49

Now the molecule CC(C)=CCOc1ccccc1/C=C/C(=O)c1ccccc1
5.36

---

assay: Selectivity index, ratio of EC50 for BALB/c mouse peritoneal macrophages to EC50 for Trypanosoma cruzi Y epimastigotes
Measurement kind: Ratio EC50
A bare number is all that is needed in reply.

Known results for compounds:
# Compound, Ratio EC50
data = [
    ("CC(C)=CCC/C(C)=C/CC/C(C)=C/COc1cccc(/C=C/C(=O)c2ccccc2)c1", 2.32),
    ("CC(C)=CCC/C(C)=C/CC/C(C)=C/COc1ccccc1/C=C/C(=O)c1ccccc1", 2.03),
    ("O=C(/C=C/c1ccccc1)c1ccccc1", 0.09),
    ("CC(C)=CCOc1ccccc1/C=C/C(=O)c1ccccc1", 5.16),
    ("CC(C)=CCC/C(C)=C/COc1cccc(/C=C/C(=O)c2ccccc2)c1", 3.12),
    ("O=C(/C=C/c1cccc(O)c1)c1ccccc1 [3-HYDROXY CHALCONE]", 2.09),
]

Then this compound:
If you can, please state the reported Ratio EC50 value of O=C(/C=C/c1ccccc1O)c1ccccc1 .
1.88

---

A collection of compounds and their measured Ratio EC50
test: Selectivity index, ratio of EC50 for BALB/c mouse peritoneal macrophages to EC50 for Leishmania infantum MHOM/BR/72 promastigotes
Please state the value as a number alone, without comment.

# Compound, Ratio EC50
records = [
    ("CC(C)=CCOc1ccccc1/C=C/C(=O)c1ccccc1", 23.73),
    ("N=C(N)c1ccc(OCCCCCOc2ccc(C(=N)N)cc2)cc1", 0.53),
    ("O=C(/C=C/c1ccccc1)c1ccccc1", 1.06),
    ("O=C(/C=C/c1ccccc1O)c1ccccc1", 1.56),
    ("CC(C)=CCC/C(C)=C/CC/C(C)=C/COc1ccccc1/C=C/C(=O)c1ccccc1", 13.78),
    ("CC(C)=CCC/C(C)=C/COc1cccc(/C=C/C(=O)c2ccccc2)c1", 10.49),
]

Item under review: C[C@@H]1[C@H](O)[C@@H](C)/C=C/C=C/C=C/C=C/C=C/C=C/C=C/[C@H](O[C@@H]2O[C@H](C)[C@@H](O)[C@H](N)[C@@H]2O)C[C@@H]2O[C@](O)(C[C@@H](O)C[C@@H](O)[C@H](O)CC[C@@H](O)C[C@@H](O)CC(=O)O[C@H]1C)C[C@H](O)[C@H]2C(=O)O . Reported Ratio EC50?
25.11

What do you get for O=C(/C=C/c1cccc(O)c1)c1ccccc1 [3-HYDROXY CHALCONE] ?
0.96

Another: CC(C)=CCC/C(C)=C/CC/C(C)=C/COc1cccc(/C=C/C(=O)c2ccccc2)c1
9.22
